- Test system: Alternaria brassicae
- test_summary: In vivo preventive test on Alternaria brassicae (leaf spot on radish)
- test_context: preventive spray, 500 ppm of active ingredient, grading 6 days after contamination
readout_kind: Efficacy (%)
Kindly answer with a numeric value in %, unit omitted.

Answered cases to consult:
Cc1ccccc1[Si](C)(C)CN(C(=O)c1nccnc1C(F)(F)F)C1CC1 = 88
C[Si](C)(CN(C(=O)c1cccnc1C(F)F)C1CC1)c1ccccc1F = 95
C[Si](C)(CN(C(=O)c1nccnc1C(F)(F)F)C1CC1)c1ccc(F)cc1Cl = 100
C[Si](C)(CN(C(=O)c1cccnc1C(F)(F)F)C1CC1)c1ccccc1 = 88

Task: What does the data say about its Efficacy? Entry: Cc1ccccc1[Si](C)(C)CN(C(=O)c1cccnc1C(F)(F)F)C1CC1
Output: 88

Task: Name the reported Efficacy value associated with the compound C[Si](C)(CN(C(=O)c1cccnc1C(F)(F)F)C1CC1)c1ccc(F)cc1Cl
Output: 75

Task: Given the entry CC[Si](C)(CN(C(=O)c1cccnc1C(F)F)C1CC1)c1ccccc1Cl (stereo not drawn) , report its measured Efficacy.
Output: 90

Task: Returns the measured Efficacy for the input compound. Input: C[Si](C)(CN(C(=O)c1nccnc1C(F)(F)F)C1CC1)c1ccccc1F
Output: 95

Task: Bench note: what Efficacy did C[Si](C)(CN(C(=O)c1cccnc1C(F)F)C1CC1)c1ccccc1 show?
Output: 96

---

Below, each of the compounds is paired with its reported logP value.
- test_summary: log P by HPLC on reversed-phase column (C 18), EEC Directive 79/831 Annex V.A8
- Assay type: physicochemical
- test_context: 40° C., 0.1% aqueous formic acid and acetonitrile, linear gradient 10% to 90% acetonitrile
- Experimental: In table 1, the log P values were determined in accordance with EEC Directive 79/831 Annex V.A8 by HPLC (High Performance Liquid Chromatography) on a reversed-phase column (C 18), using the method described below: Temperature: 40° C.; Mobile phases: 0.1% aqueous formic acid and acetonitrile; linear gradient from 10% acetonitrile to 90% acetonitrile. […]
Please reply with the value in numeric form only.

Task: Could you tell me which logP is on file for C[Si](C)(CN(C(=O)c1cccnc1Cl)C1CC1)c1ccc(F)cc1Cl ?
Output: 4.06

Task: Returns the measured logP for the input compound. Input: Cc1ccccc1[Si](C)(C)CN(C(=O)c1cccnc1C(F)F)C1CC1
Output: 3.73

Task: # input compound: C[Si](C)(CN(C(=O)c1nccnc1C(F)(F)F)C1CC1)c1cc(F)ccc1Cl ; wanted: its logP
Output: 4.59

---

Reported logP by item:
- test_summary: log P by HPLC on reversed-phase column (C 18), EEC Directive 79/831 Annex V.A8
- Assay type: physicochemical
- test_context: 40° C., 0.1% aqueous formic acid and acetonitrile, linear gradient 10% to 90% acetonitrile

Consider the worked cases shown below.
C[Si](C)(CN(C(=O)c1nccnc1C(F)(F)F)C1CC1)c1ccc2ccccc2c1 = 4.80
C[Si](C)(Cc1cc(Cl)cc(Cl)c1)CN(C(=O)c1ccccc1C(F)(F)F)C1CC1 = 5.94
C[Si](C)(CN(C(=O)c1cccnc1C(F)F)C1CC1)c1cc(Cl)cc(Cl)c1 = 4.49

Task: logP for C[Si](C)(CN(C(=O)c1nccnc1C(F)(F)F)C1CC1)c1ccccc1 ?
Output: 4.13

Task: Please report the recorded logP for C[Si](C)(Cc1ccccc1)CN(C(=O)c1cccnc1C(F)F)C1CC1 .
Output: 3.80

Task: What logP value was documented for this compound, C[Si](C)(CN(C(=O)c1cccnc1Cl)C1CC1)c1cccc2ccccc12 ?
Output: 4.15

Task: Entry C[Si](C)(CN(C(=O)c1nccnc1C(F)(F)F)C1CC1)c1cccc2ccccc12 has what logP?
Output: 4.77

Task: What does the record list as logP for C[Si](C)(CNC(=O)c1cccnc1C(F)F)c1cccc(Cl)c1 ?
Output: 3.15

Data origin: patent US9617286B2
